System: SN12C
Test method notes: NCI tumour cell line growth inhibition, 48 h
The source made the active and inactive calls. Cut-off read from the data, not from the text of the source: active = GI50 up to about 1.1 µM and inactive = higher.
Labels: active, inactive

* O=C1Oc2cc3c(c4cccc1c24)OCN(c1ccccc1)C3 | inactive
* O=C1c2ccccc2C(=O)c2c(NCC3CO3)cccc21 (stereo unspecified) | inactive
* CC1=C(C(=O)Nc2ccc(Cl)c(C(=O)OC(C)C)c2)SCCO1 | inactive
* O=C(c1nc2ccccc2nc1O)C(O)c1ccccc1 (stereo unspecified) | inactive
* O=C1C=CC(=CC=C2C=CN(CCCCCCCCCCC(=O)NCCCCCCCCCCCC(=O)O)C=C2)C=C1 | inactive
* C/C(=C\C(=O)O)C(=O)N(C)c1ccccc1I | inactive
* CCCCCCCCCCCC[C@@H](O)[C@H]1CC[C@H]([C@H]2CC[C@H]([C@H](O)CC[C@H](O)CCCCCCCC3=C[C@H](C)OC3=O)O2)O1 | inactive
* N#CC12C(=O)NC(=O)C1(C#N)C1C=CC2CC1 (stereo unspecified) | inactive
* Cc1cc(N)ccc1C=O | inactive
* CC(C)CCOC(=O)NC(Nc1ccc(F)cc1)(C(F)(F)F)C(F)(F)F | inactive
* Cc1ccc([N+](=O)[O-])cc1S(=O)(=O)Nc1ccc(C2=NNC(c3ccccc3)C2)cc1 (stereo unspecified) | inactive
* Oc1c(Cl)c(Cl)c(O)c(CCNc2ccc3ncccc3c2)c1Cl | inactive
* O=C1Oc2ccccc2C(=O)/C1=C/N1C(=O)N/C(=C\c2cccc(O)c2)C1=O | inactive
* O=c1cc(-c2ccc(O)c(O)c2)oc2cc(O[C@H]3O[C@H](CO)[C@@H](O)[C@H](O)[C@H]3O)cc(O)c12 | inactive
* CN(C)CCNc1ccc2c(=O)n(CCN(C)C)c(=O)n3c4ccc(N)cc4c(=O)c1c23 | active
* CCOc1ccccc1NC(=O)CCC(=O)OC | inactive
* C#Cc1cc(CN(CC(=O)OC(C)(C)C)CC(=O)OC(C)(C)C)nc(CN(CC(=O)OC(C)(C)C)CC(=O)OC(C)(C)C)c1 | inactive
* Cc1ccc(S(=O)(=O)C(CC(=O)N2CCCC2)C(=O)c2ccccc2)cc1 (stereo unspecified) | inactive
* CC(C)(C)OC1=C(OC(C)(C)C)C(O)(c2ccccc2)C1=O (stereo unspecified) | inactive
* Cc1ccc(C)c(NC(=O)C(=O)C2C(=O)C3=C(CC2(C)C)Nc2ccccc2S3)c1 (stereo unspecified) | inactive
* O=C1NC(=O)C(Cc2ccccc2)(c2cccnc2)N1 (stereo unspecified) | inactive
